# System Tested: T1, human MSLN-FL-his protein (human, UniProt Q13421 296-580)
# T1 construct: also called human MSLN full-length protein; hMSLN-FL-his; not shown: His tag
# T1 sequence (Q13421 other isoform, or with tags, fused parts or gaps): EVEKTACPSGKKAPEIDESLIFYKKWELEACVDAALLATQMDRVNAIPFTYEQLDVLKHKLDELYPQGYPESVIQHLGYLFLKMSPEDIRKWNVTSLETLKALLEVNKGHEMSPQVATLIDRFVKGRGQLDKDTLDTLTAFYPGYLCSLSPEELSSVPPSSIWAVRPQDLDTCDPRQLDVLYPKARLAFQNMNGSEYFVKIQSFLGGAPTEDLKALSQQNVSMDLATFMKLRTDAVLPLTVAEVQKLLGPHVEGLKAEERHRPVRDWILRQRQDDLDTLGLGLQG
# Assay Method Text: ELISA, coated MSLN full-length;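 also: binding of chimeric antibodies to plate-bound antigen, read by TMB colour after acid stop, antibody incubated 2 h at 37 °C, negative control antibody run alongside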
Some binders, each annotated with its measured OD450 at 1 nM.
Please reply with the bare figure in OD450 and do not write the unit itself.

>>> quantitative_result("S009-F2.38.12 (antibody, human IgG1, kappa, V domains shown, Human-murine chimeric antibody, human IgG1/kappa constant regions) VH: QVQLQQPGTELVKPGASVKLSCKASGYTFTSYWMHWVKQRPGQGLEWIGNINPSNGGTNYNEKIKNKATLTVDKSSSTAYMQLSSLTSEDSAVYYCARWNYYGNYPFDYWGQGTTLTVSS VL: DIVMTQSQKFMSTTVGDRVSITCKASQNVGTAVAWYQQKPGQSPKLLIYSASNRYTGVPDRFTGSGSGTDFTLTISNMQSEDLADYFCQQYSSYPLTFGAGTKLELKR")
2.56
>>> quantitative_result("S009-F2-56.12 (antibody, human IgG1, kappa, V domains shown, Human-murine chimeric antibody, human IgG1/kappa constant regions) VH: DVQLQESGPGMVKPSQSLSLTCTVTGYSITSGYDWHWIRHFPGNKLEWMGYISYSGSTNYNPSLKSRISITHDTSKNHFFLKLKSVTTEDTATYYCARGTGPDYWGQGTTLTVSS VL: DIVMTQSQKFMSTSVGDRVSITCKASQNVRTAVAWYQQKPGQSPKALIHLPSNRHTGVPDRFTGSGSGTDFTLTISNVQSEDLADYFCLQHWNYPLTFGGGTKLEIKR")
0.41

// below: OD450 at 1 nM requested for another binder
Prompt: What does the record list as OD450 at 1 nM for S009-F2.21.4 (antibody, human IgG1, kappa, V domains shown, Human-murine chimeric antibody, human IgG1/kappa constant regions) VH: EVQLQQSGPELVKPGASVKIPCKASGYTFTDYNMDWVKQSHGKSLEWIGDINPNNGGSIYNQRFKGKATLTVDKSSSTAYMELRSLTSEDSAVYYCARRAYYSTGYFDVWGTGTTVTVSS VL: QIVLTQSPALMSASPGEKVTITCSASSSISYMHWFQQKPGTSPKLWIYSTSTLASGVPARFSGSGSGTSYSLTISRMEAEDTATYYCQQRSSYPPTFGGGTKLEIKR ?
Completion: 2.46
